IC50 values for the molecules below.
System: NF-κB pathway (SEAP) in THP1-Dual cells
methodNotes: THP-1 Dual cell SEAP assay (L18-MDP stimulated)
Type: cell-based
conditionDetails: Homo sapiens, THP1-Dual, read-out: NFkB THP1 IC50

Worked cases, IC50 given:
molecule	IC50
COc1cc2ncc(-c3cc(C)c(OC)c(N)n3)n2cc1S(=O)(=O)C(C)(C)C [Example 335]	> 1000 nM
COc1cc2ncc(-c3cc(F)c(OC)c(NS(=O)(=O)CC(C)C)c3)n2cc1S(=O)(=O)C(C)(C)C [Example 279]	< 50 nM
CCCS(=O)(=O)Nc1cc(C#N)cc(-c2cnc3cc(OC)c(S(=O)(=O)C(C)(C)C)cn23)c1 [Example 282]	> 1000 nM
COc1cc2ncc(-c3ccc(N)c(OC(F)(F)F)c3)n2cc1S(=O)(=O)C(C)(C)C [Example 89]	> 1000 nM
COc1cc2ncc(-c3ccc(OC)c(N)c3F)n2cc1S(=O)(=O)C(C)(C)C [Example 28]	> 1000 nM
COc1cc2ncc(-c3cc(F)nc(F)c3)n2cc1S(=N)(=O)C(C)(C)C (centres unmarked) [Example 315]	> 1000 nM
COc1cc2ncc(-c3cccc(NS(=O)(=O)C(C)(C)C)c3)n2cc1S(=O)(=O)C(C)(C)C [Example 277]	< 50 nM
COc1cc2ncc(-c3cncc(N)c3)n2cc1S(=O)(=O)C(C)(C)C [Example 30]	> 1000 nM
COc1cc2ncc(-c3cc(F)nc(NCCCO)c3)n2cc1C(=O)N(C)C [Example 248]	50 to 250 nM
CCS(=O)(=O)Nc1cc(-c2cnc3cc(OC)c(S(=O)(=O)C(C)(C)C)cn23)cc(F)c1OC [Example 294]	< 50 nM

query: Look at this molecule and give its reported IC50. COc1cc2ncc(-c3ccc(N)c(OC(F)F)c3)n2cc1S(=O)(=O)C(C)(C)C [Example 142]
result: 250 to 1000 nM

query: I would be grateful if you could share the reported IC50 for CNc1ccnc(-c2cnc3cc(OC)c(S(=O)(=O)C(C)(C)C)cn23)c1 [Example 162] .
result: > 1000 nM

query: Which IC50 value is on record for COc1cc2ncc(-c3cc(F)nc(NCCN4CCCC4=O)c3)n2cc1S(=O)(=O)C(C)(C)C [Example 210] ?
result: 50 to 250 nM

query: Return reported IC50; argument: COc1ccn2c(-c3cc(F)nc(NCCCO)c3)cnc2c1 [Example 234]
result: 50 to 250 nM

query: Which IC50 reading was recorded for the molecule COc1cc(N)cc(-c2cnc3cc(OC)c(S(=O)(=O)C(C)(C)C)cn23)n1 [Example 126] ?
result: > 1000 nM

query: Sample CCCS(=O)(=O)Nc1cncc(-c2cnc3cc(OC)c(S(=O)(=O)C(C)(C)C)cn23)c1 [Example 254] — what was its IC50?
result: > 1000 nM

query: Entry COc1cc2ncc(-c3cnc(N)c(C(F)F)c3)n2cc1S(=O)(=O)C(C)(C)C [Example 98] has what IC50?
result: > 1000 nM
